IC50 at 24 h reference
assay_explanation: Cytotoxicity against human HeLa cells after 24 hrs by MTT assay
Type: toxicity, cell-based
Write the answer as a number in mM, unit excluded.

Cc1ncc([N+](=O)[O-])n1CC(O)CSC(=S)N1CCOCC1 (racemic): 4.52
CCOC(=O)N1CCN(CC(O)Cn2c([N+](=O)[O-])cnc2C)CC1 (racemic): 3.67
Cc1nc([N+](=O)[O-])cn1CC(O)CN1CCN(c2cccc(Cl)c2Cl)CC1 (racemic): 3.62
CCOC(=O)N1CCN(C(=S)SCC(O)Cn2c([N+](=O)[O-])cnc2C)CC1 (racemic): 1.61

Supply IC50 at 24 h value. Item: Cc1ncc([N+](=O)[O-])n1CC(O)Cn1cncn1 (racemic)
4.97

Supply IC50 at 24 h value. Item: CCCCN1CCN(C(=S)SCC(O)Cn2c([N+](=O)[O-])cnc2C)CC1 (racemic)
1.91

Supply IC50 at 24 h value. Item: CCCCN1CCN(C(=S)SCC(O)Cn2cc([N+](=O)[O-])nc2C)CC1 (racemic)
4.33

Supply IC50 at 24 h value. Item: Cc1nc([N+](=O)[O-])cn1CC(O)Cn1c([N+](=O)[O-])cnc1C (racemic)
4.35

// data source = ChEMBL document CHEMBL3875170
